Target: Muscarinic acetylcholine receptor M3 (Homo sapiens)
Assay: NVS_GPCR_hM3: NovaScreen (NVS) G Protein-Coupled Receptor Assay for human Muscarinic, M3 Receptor (AID 2283272)
Method: NVS_GPCR_hM3 is a biochemical, single-readout assay that uses extracted gene-proteins from CHO in a cell-free assay. Measurements were taken 1 hour after chemical dosing in a 96-well plate.NVS_GPCR_hM3 is one of one assay component(s) measured or calculated from the NVS_GPCR_hM3 assay. […] This assay endpoint, NVS_GPCR_hM3, was analyzed in the positive analysis fitting direction relative to DMSO as the negative control and baseline of activity. […]
Results filed as inconclusive are left out. The source made the active and inactive calls. Rule for the calls: active = hit-call score of the fitted dose curve at least 0.9, where 1 is the maximum; inconclusive = response in the unintended direction; inactive = score below 0.9.
Use one of these outcomes when replying: 1 (yes) (active), 0 (no) (inactive)

compound: C[C@]12CC[C@@H]3c4ccc(O)cc4C[C@@H](CCCCCCCCCS(=O)CCCC(F)(F)C(F)(F)F)[C@H]3[C@@H]1CC[C@@H]2O (some centres undefined)
assigned-label: 0 (no)

Tell me the assay call for CCCCC(CC)CN1C(=O)C2C3C=CC(C3)C2C1=O (centres undefined) please.
1 (yes)

Each compound tested received a call. Report the one for C=CCOC(Cn1ccnc1)c1ccc(Cl)cc1Cl (centres undefined) .
1 (yes)

Outcome logged for `Oc1ccc(C(c2ccc(O)cc2)C(Cl)(Cl)Cl)cc1` in this assay:
0 (no)

---

read-out: xenobiotic metabolism (CYP1A2), CYP1A2 (gene 1544); assay: CLD_CYP1A2_48hr: CellzDirect (CLD) Gene Expression Assay for xenobiotic metabolism (CYP1A2) at 48 hours (AID 2283703)
Records with an inconclusive call do not appear. Calls of active or inactive are those of the source. How the source made its calls: active means hit-call score of the fitted dose curve at least 0.9, where 1 is the maximum; inconclusive means response in the unintended direction; inactive means score below 0.9.
Write down the outcome that applies. Available outcomes: Y for active, N for inactive

Examples from the recorded data:
compound: COC(=O)c1ccccc1S(=O)(=O)NC(=O)Nc1nc(OC(F)F)cc(OC(F)F)n1
assigned-label: Y
--
compound: CCCCC(CC)CN1C(=O)C2C3C=CC(C3)C2C1=O (stereo unspecified)
assigned-label: Y
--
compound: CN(C)C(=O)Nc1ccc(Cl)c(Cl)c1
assigned-label: Y
--
compound: CCOC(=O)[C@H](C)Oc1ccc(Oc2nc3ccc(Cl)cc3o2)cc1
assigned-label: Y
--
compound: CCCOC(=O)NCCCN(C)C
assigned-label: N

Please examine the following record next.
GET /call?item= `CCCCOC(=O)[C@@H](C)Oc1ccc(Oc2ccc(C(F)(F)F)cn2)cc1` returns the recorded outcome of this test.
N

---

assay: CCTE_Shafer_MEA_acute_per_network_burst_spike_number_std: CCTE's Neural Acute Assay for Standard Deviation of Number of Spikes in a Network Burst, Shafer Lab (AID 2284020);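 note: fitted for decrease in spike-number SD versus DMSO so actives lower it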
The source made the active and inactive calls. How the source made its calls: active means hit-call score of the fitted dose curve at least 0.9, where 1 is the maximum; inactive means score below 0.9.
Parameter call: string, one of active, inactive

compound: N#CSCSc1nc2ccccc2s1
assigned-label: active
--
compound: COC(=O)c1ccccc1C(=O)O
assigned-label: inactive
--
compound: CC(C)CCCCCCc1ccc(O)cc1
assigned-label: inactive
--
compound: CCNc1nc(N)nc(Cl)n1
assigned-label: inactive
--
compound: OB(O)O
assigned-label: inactive

Can you look up the reported call for `CC(C)(c1ccc(O)cc1)c1ccc(O)cc1` for me?
inactive

Hi team, can someone confirm the assay call for `O=C(O)c1ccccc1` ?
inactive

---

read-out: Cytochrome P450 3A4 (Homo sapiens) (UniProt P08684); test: CLD_CYP3A4_48hr: CellzDirect (CLD) Gene Expression Assay for xenobiotic metabolism (CYP3A4) at 48 hours (AID 2283698)
Sequence (P08684 whole entry, looked up): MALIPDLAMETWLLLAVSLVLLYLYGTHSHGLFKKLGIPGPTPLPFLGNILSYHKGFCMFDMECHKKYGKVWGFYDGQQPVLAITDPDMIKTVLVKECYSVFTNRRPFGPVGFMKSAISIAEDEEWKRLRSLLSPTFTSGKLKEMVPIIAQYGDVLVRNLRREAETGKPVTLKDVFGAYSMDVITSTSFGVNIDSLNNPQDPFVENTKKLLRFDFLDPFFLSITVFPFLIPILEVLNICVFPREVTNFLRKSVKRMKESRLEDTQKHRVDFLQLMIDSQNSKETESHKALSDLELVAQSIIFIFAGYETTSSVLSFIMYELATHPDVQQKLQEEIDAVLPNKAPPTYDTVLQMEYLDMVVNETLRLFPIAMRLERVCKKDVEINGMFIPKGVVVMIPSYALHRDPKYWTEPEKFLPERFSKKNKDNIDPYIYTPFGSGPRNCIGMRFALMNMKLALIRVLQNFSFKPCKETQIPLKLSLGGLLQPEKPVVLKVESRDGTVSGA
Results filed as inconclusive are left out. Active and inactive are the calls of the source. The calls were made as follows: active = hit-call score of the fitted dose curve at least 0.9, where 1 is the maximum; inconclusive = response in the unintended direction; inactive = score below 0.9.
Your reply should match one of these outcome classes. Yes = active, No = inactive

compound-string: C#CCOC(=O)[C@@H](C)Oc1ccc(Oc2ncc(Cl)cc2F)cc1
assigned-label: No
--
compound-string: Oc1ccc(C(c2ccc(O)cc2)C(Cl)(Cl)Cl)cc1
assigned-label: No
--
compound-string: COC(=O)c1c(Cl)nn(C)c1S(=O)(=O)NC(=O)Nc1nc(OC)cc(OC)n1
assigned-label: Yes
--
compound-string: CCSC(=O)N(CC(C)C)CC(C)C
assigned-label: No
--
compound-string: CCNc1nc(N)nc(Cl)n1
assigned-label: No
--
compound-string: COCCO
assigned-label: No

Please find the next compound below.
For `c1ccc(Nc2ccccc2)cc1` , which call appears in the assay record?
No

Reference source: PubChem BioAssay (EPA / NIEHS)
